Target: human m1 muscarinic receptor (Homo sapiens, UniProt P11229)
Sequence (P11229 whole entry): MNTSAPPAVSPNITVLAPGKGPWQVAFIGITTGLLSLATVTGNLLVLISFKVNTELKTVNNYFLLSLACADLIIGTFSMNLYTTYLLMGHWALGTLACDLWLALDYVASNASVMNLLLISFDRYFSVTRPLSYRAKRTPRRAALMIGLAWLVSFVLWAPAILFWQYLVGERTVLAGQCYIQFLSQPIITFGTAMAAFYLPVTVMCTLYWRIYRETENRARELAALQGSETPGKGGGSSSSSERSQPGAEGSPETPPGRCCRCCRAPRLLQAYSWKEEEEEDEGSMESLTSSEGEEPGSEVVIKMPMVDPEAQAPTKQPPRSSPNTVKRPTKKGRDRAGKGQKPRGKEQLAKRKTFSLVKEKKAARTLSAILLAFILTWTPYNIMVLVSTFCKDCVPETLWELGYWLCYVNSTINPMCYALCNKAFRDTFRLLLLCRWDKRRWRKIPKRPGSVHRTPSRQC
Method description: biochemical
Format: binding
Details: membranes from stably transfected CHO cell lines, 3H-QNB; read-out: m1 Ki
Observation type: Ki (nM)

smiles=Cc1cccc(C(=O)N2CCC(N3CCC(Cc4ccc(S(=O)(=O)c5cccc(Cl)c5)cc4)CC3)CC2)c1N reported=650

* * *

Target: human m4 muscarinic receptor (Homo sapiens)
Sequence (P08173 whole entry): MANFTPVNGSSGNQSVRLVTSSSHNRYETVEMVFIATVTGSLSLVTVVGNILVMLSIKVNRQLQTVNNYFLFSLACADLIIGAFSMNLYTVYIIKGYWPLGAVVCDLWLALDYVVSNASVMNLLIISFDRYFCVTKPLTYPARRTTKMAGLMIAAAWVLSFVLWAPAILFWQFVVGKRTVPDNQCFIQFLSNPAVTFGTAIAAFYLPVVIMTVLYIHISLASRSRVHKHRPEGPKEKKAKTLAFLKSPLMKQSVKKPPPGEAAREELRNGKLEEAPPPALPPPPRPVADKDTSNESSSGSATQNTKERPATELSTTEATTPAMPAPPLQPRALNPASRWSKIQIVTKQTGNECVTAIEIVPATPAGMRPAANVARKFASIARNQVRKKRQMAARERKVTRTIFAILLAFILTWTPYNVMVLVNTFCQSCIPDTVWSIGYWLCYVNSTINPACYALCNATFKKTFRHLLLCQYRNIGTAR
Method description: biochemical
Type: binding
pKi: −log10 of the molar value.
Observation type: pKi

compound="Nc1ccccc1C(=O)N1CCC(N2CCC(Cc3ccc(S(=O)(=O)c4cccc(Cl)c4)cc3)CC2)CC1 [Example 7A]" target="human m4 muscarinic receptor (Homo sapiens)" observation_type=pKi reported=7.48
